Overview of recorded viability, T/C for various molecules
- System: 317291-083-R-J1-PDC complex spheroids, viability
- methodSummary: Anticancer human tumor 317291-083-R-J1-PDC patient-derived soft tissue sarcoma cell line growth inhibition [GQUAD]
- measurementContext: second compound 0.1 µM; first compound 3.16 µM; active compounds read low
Report the figure in % without appending any unit label.

molecule	numericResult
Cc1cccc(N(C)C(=O)C2C(O)CCN2c2nc(C)cc(C(F)(F)F)c2C#N)c1 (stereo unspecified) + CN(C)c1ccc(Nc2c3ccc(NC(=O)CCN4CCCC4)cc3nc3cc(NC(=O)CCN4CCCC4)ccc23)cc1	75.9
O=c1[nH]cc(F)c(=O)[nH]1 + Cc1[nH]c2ccc(F)cc2c1-c1nc2c3cccnc3c3ncccc3c2[nH]1	34.7
CC1COCCN1c1cc(C2(O)CC3CCC(C2)O3)c2cnn(-c3ccn[nH]3)c2n1 (stereo unspecified) + Cc1[nH]c2ccc(F)cc2c1-c1nc2c3cccnc3c3ncccc3c2[nH]1	10.4
CC1COCCN1c1cc(-c2ccnn2C)c2ccnc(-c3ccn[nH]3)c2n1 (stereo unspecified) + Cc1cnc(CNC(=O)c2c(=O)c3ccc(N4CCCN(C)CC4)nc3n3c2sc2ccccc23)cn1	11.6
C=CC(=O)N1CCN(c2nc(=O)n(-c3c(C)ccnc3C(C)C)c3nc(-c4c(O)cccc4F)c(F)cc23)C(C)C1 (stereo unspecified) + Cc1cnc(CNC(=O)c2c(=O)c3ccc(N4CCCN(C)CC4)nc3n3c2sc2ccccc23)cn1	70.1

## Input // returns reported viability, T/C for input COc1cc(C2c3cc4c(cc3C(OC3OC5COC(C)OC5C(O)C3O)C3COC(=O)C23)OCO4)cc(OC)c1O (stereo unspecified) + Cc1cnc(CNC(=O)c2c(=O)c3ccc(N4CCCN(C)CC4)nc3n3c2sc2ccccc23)cn1
## Output 15.6

----------
- Test system: 317291-083-R-J1-PDC complex spheroids, viability
- methodSummary: Anticancer human tumor 317291-083-R-J1-PDC cell line growth inhibition [GQUAD]; active means viability on the fitted dose curve at most 10% of control; inactive means the rest;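 further: spheroids exposed to compounds for one week before readout; percent viability relative to DMSO vehicle wells taken as 100%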
- measurementContext: second compound 10 µM; first compound 1 µM
In this exercise, the only acceptable responses are label 1 for active, label 0 for inactive

compound	assignedCategory
COc1cccc2c1C(=O)c1c(O)c3c(c(O)c1C2=O)CC(O)(C(=O)CO)CC3OC1CC(N)C(O)C(C)O1 (stereo not drawn) + Cc1[nH]c2ccc(F)cc2c1-c1nc2c3cccnc3c3ncccc3c2[nH]1	label 1
O=c1[nH]cc(F)c(=O)[nH]1 + CN(C)c1ccc(Nc2c3ccc(NC(=O)CCN4CCCC4)cc3nc3cc(NC(=O)CCN4CCCC4)ccc23)cc1	label 1

Kindly review the next compound as well.
## Input Please share the test call associated with CC1COCCN1c1cc(-c2ccnn2C)c2ccnc(-c3ccn[nH]3)c2n1 (stereo not drawn) + Cc1cnc(CNC(=O)c2c(=O)c3ccc(N4CCCN(C)CC4)nc3n3c2sc2ccccc23)cn1 .
## Output label 0

----------
- Test system: 317291-083-R-J1-PDC complex spheroids, viability
- methodSummary: Anticancer human tumor 317291-083-R-J1-PDC cell line growth inhibition [GQUAD]; active means viability on the fitted dose curve at most 10% of control; inactive means the rest;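 further: spheroids exposed to compounds for one week before readout; percent viability relative to DMSO vehicle wells taken as 100%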
- measurementContext: second compound 10 µM; first compound 0.00999 µM
In this exercise, the only acceptable responses are label 1 = active, label 0 = inactive

compound	assayTarget	assignedCategory
CC[C@@]1(O)C(=O)OCc2c1cc1n(c2=O)Cc2cc3c(CN(C)C)c(O)ccc3nc2-1 + Cc1[nH]c2ccc(F)cc2c1-c1nc2c3cccnc3c3ncccc3c2[nH]1	317291-083-R-J1-PDC complex spheroids, viability	label 0

## Input Please share the test call associated with CCc1c2c(nc3ccc(O)cc13)-c1cc3c(c(=O)n1C2)COC(=O)[C@]3(O)CC + Cc1[nH]c2ccc(F)cc2c1-c1nc2c3cccnc3c3ncccc3c2[nH]1 .
## Output label 1

## Input Please share the test call associated with CCc1c2c(nc3ccc(O)cc13)-c1cc3c(c(=O)n1C2)COC(=O)[C@]3(O)CC + Cc1cnc(CNC(=O)c2c(=O)c3ccc(N4CCCN(C)CC4)nc3n3c2sc2ccccc23)cn1 .
## Output label 1

## Input Please share the test call associated with Cc1[nH]c2ccccc2c1CCNCc1ccc(/C=C/C(=O)NO)cc1 + Cc1[nH]c2ccc(F)cc2c1-c1nc2c3cccnc3c3ncccc3c2[nH]1 .
## Output label 0

## Input Please share the test call associated with CC[C@@]1(O)C(=O)OCc2c1cc1n(c2=O)Cc2cc3c(CN(C)C)c(O)ccc3nc2-1 + Cc1cnc(CNC(=O)c2c(=O)c3ccc(N4CCCN(C)CC4)nc3n3c2sc2ccccc23)cn1 .
## Output label 0

## Input Please share the test call associated with Cn1ncnc1[C@H]1c2n[nH]c(=O)c3cc(F)cc(c23)N[C@@H]1c1ccc(F)cc1 + Cc1cnc(CNC(=O)c2c(=O)c3ccc(N4CCCN(C)CC4)nc3n3c2sc2ccccc23)cn1 .
## Output label 0

Values compiled from PubChem BioAssay AID2060497.
